target: GP IIb IIIa (Homo sapiens, UniProt P05106+P08514); construct: from tissue; host or cells: outdated human platelets; assay: Fibrinogen-GP IIb IIIa Receptor ELISA Binding Assay (Fg/IIbIIIa); settings: Example 29, Cmpd # 1-105; read-out: IC50 Fg/IIbI
Sequence (P08514 32-887 limits assumed): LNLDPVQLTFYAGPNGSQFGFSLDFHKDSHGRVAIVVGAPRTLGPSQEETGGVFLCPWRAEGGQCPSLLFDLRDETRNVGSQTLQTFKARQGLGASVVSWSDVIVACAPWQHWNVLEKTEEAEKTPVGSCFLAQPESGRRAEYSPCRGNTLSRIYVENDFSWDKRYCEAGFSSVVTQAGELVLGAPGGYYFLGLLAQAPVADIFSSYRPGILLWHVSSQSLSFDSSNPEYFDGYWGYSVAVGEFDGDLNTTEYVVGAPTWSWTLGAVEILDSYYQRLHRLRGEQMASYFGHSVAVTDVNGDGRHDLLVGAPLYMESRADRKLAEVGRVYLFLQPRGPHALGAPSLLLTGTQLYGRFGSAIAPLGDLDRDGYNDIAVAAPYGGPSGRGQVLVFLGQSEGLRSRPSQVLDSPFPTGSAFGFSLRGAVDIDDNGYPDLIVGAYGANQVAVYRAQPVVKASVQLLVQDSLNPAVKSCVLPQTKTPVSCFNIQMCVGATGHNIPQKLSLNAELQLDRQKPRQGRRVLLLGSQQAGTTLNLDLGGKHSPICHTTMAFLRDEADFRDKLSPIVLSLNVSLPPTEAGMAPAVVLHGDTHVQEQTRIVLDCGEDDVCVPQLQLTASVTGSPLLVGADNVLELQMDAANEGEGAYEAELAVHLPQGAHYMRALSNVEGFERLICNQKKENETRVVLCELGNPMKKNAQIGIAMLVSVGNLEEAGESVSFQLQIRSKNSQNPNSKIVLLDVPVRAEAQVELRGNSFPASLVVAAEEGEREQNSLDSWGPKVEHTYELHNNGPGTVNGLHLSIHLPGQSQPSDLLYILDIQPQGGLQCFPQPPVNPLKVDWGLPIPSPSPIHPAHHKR
Sequence (P08514 891-1039 partner limits assumed): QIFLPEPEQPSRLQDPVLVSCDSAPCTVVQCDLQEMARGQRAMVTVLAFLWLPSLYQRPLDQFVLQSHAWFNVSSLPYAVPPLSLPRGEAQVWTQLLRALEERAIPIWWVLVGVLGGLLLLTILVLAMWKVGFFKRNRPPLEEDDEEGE
Sequence (P05106 27-788): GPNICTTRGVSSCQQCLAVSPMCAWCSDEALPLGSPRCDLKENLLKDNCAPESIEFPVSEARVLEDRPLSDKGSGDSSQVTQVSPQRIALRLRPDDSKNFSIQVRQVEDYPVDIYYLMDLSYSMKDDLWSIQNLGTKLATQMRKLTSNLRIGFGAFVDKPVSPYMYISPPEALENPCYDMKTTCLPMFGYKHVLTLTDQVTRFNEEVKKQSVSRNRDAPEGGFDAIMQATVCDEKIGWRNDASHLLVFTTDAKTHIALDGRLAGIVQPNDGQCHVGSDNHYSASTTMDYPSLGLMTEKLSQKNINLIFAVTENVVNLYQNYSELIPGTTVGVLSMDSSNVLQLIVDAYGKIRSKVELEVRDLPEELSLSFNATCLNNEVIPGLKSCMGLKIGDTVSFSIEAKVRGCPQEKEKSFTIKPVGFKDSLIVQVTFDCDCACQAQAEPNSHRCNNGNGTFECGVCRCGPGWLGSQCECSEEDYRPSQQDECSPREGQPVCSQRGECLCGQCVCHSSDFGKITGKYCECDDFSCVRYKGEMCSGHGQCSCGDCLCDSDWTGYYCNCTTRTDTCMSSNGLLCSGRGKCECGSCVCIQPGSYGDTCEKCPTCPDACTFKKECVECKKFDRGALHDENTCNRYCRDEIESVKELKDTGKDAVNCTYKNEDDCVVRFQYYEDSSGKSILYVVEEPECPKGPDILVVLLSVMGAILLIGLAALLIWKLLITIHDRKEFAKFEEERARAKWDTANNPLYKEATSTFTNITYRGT
pIC50: −log10 of the molar value. Where a name gives a salt, the structure may show the parent alone.
test-readout: pIC50

compound: N=C(N)NCCCCCc1ccc2c(c1)C(=O)N(CCC(=O)O)CC(=O)N2Cc1ccc2ccccc2c1 [Cmpd 75]
target-of-assay: GP IIb IIIa (Homo sapiens, UniProt P05106+P08514)
reported-value: 7.96
--
compound: NCCCCCc1ccc2c(c1)C(=O)N(CCC(=O)O)CC(=O)N2Cc1ccc(C(F)(F)F)cc1 [Cmpd 96, trifluoroacetate]
target-of-assay: GP IIb IIIa (Homo sapiens, UniProt P05106+P08514)
reported-value: 6.73
--
compound: CN1C(=O)CN(CCC(=O)O)C(=O)c2cc(C#CCCNC(=N)N)ccc21 [Cmpd 22]
target-of-assay: GP IIb IIIa (Homo sapiens, UniProt P05106+P08514)
reported-value: 6.85
--
compound: NCCCCC#Cc1ccc2c(c1)C(=O)N(CCC(=O)O)CC(=O)N2Cc1ccc([N+](=O)[O-])cc1 [Cmpd 87]
target-of-assay: GP IIb IIIa (Homo sapiens, UniProt P05106+P08514)
reported-value: 7.51
--
compound: NCCCCCc1ccc2c(c1)C(=O)N(CCC(=O)O)CC(=O)N2Cc1ccc2ccccc2c1 [Cmpd 76]
target-of-assay: GP IIb IIIa (Homo sapiens, UniProt P05106+P08514)
reported-value: 7.11
--
compound: CN1C(=O)C(c2ccccc2)N(CCC(=O)O)C(=O)c2cc(CCCNC(=N)N)ccc21 (centres unmarked) [Cmpd 12]
target-of-assay: GP IIb IIIa (Homo sapiens, UniProt P05106+P08514)
reported-value: 5.64
--
compound: CN1C(=O)CN(CCC(=O)O)C(=O)c2cc(CCc3ccc(CN)cc3)ccc21 [Cmpd 45]
target-of-assay: GP IIb IIIa (Homo sapiens, UniProt P05106+P08514)
reported-value: 7.07
--
compound: N=C(N)NCCCC#Cc1ccc2c(c1)C(=O)N(CCC(=O)O)CC(=O)N2C(c1ccccc1)c1ccccc1 [Cmpd 71]
target-of-assay: GP IIb IIIa (Homo sapiens, UniProt P05106+P08514)
reported-value: 8.10

----------
Target: GP IIb IIIa (Homo sapiens, UniProt P05106+P08514)
Construct: from tissue; host or cells: outdated human platelets
Test: Fibrinogen-GP IIb IIIa Receptor ELISA Binding Assay (Fg/IIbIIIa)
Conditions: Example 30, G # table; read-out: IC50 (μM) Fg/IIbIIIa
Method: Briefly, microtiter plates are coated with fibrinogen (10 mg/ml) and then blocked with TACTS buffer containing 0.5% bovine serum albumin (BSA). […] After another wash a goat anti-mouse IgG conjugated to horseradish peroxidase is added. […] The reaction is stopped with 1N sulfuric acid and the absorbance at 492 nm is recorded. […] The optical density at 492 nm vs 405 nm is recorded and IC50 values are determined.
Where a name gives a salt, the structure may show the parent alone.

compound: N=C(N)NCCCC#Cc1ccc2c(c1)C(=O)N(CCC(=O)O)CC(=O)N2C(c1ccccc1)c1ccccc1
IC50 [µM]: 0.008
--
compound: N=C(N)NCCCCCc1ccc2c(c1)C(=O)N(CCC(=O)O)CC(=O)N2Cc1ccc(Cl)cc1
IC50 [µM]: 0.011
--
compound: CN1C(=O)CN(CCC(=O)O)C(=O)c2cc(CCCCCNC(=N)N)ccc21
IC50 [µM]: 0.055
--
compound: NCCCCC#Cc1ccc2c(c1)C(=O)N(CCC(=O)O)CC(=O)N2Cc1cccc([N+](=O)[O-])c1
IC50 [µM]: 0.008
--
compound: CN1C(=O)CN(CCC(=O)O)C(=O)c2cc(C#CCCNC(=N)N)ccc21
IC50 [µM]: 0.14
--
compound: N=C(N)NCCCCCCc1ccc2c(c1)C(=O)N(CCC(=O)O)CC(=O)N2Cc1cccc(NC(=O)CCCNC(=N)N)c1
IC50 [µM]: 0.01
--
compound: NCCCCCCc1ccc2c(c1)C(=O)N(CCC(=O)O)CC(=O)N2Cc1ccc(Cl)cc1
IC50 [µM]: 0.014
--
compound: N=C(N)NCCCCCCc1ccc2c(c1)C(=O)N(CCC(=O)O)CC(=O)N2Cc1cccc2ccccc12
IC50 [µM]: 0.014
--
compound: N=C(N)NCCCCC#Cc1ccc2c(c1)C(=O)N(CCC(=O)O)CC(=O)N2Cc1cccc([N+](=O)[O-])c1
IC50 [µM]: 0.006
--
compound: CN1C(=O)CN(CCC(=O)O)C(=O)c2cc(C#Cc3ccc(CN)cc3)ccc21
IC50 [µM]: 0.012
--
compound: COc1ccc(CN2C(=O)CN(CCC(=O)O)C(=O)c3cc(CCCCCCN)ccc32)cc1 [Cmpd 81, trifluoroacetate]
IC50 [µM]: 0.023
--
compound: NCCCCCCc1ccc2c(c1)C(=O)N(CCC(=O)O)CC(=O)N2Cc1cccc(NC(=O)CCN)c1
IC50 [µM]: 0.008
--
compound: NCCCCCc1ccc2c(c1)C(=O)N(CCC(=O)O)CC(=O)N2Cc1cccc2ccccc12
IC50 [µM]: 0.066
--
compound: NCCCCCc1ccc2c(c1)C(=O)N(CCC(=O)O)CC(=O)N2C(c1ccccc1)c1ccccc1 [Cmpd 68, trifluoroacetate]
IC50 [µM]: 0.028
--
compound: NCCCCCc1ccc2c(c1)C(=O)N(CCC(=O)O)CC(=O)N2Cc1ccc2ccccc2c1
IC50 [µM]: 0.077
--
compound: NCCCC#Cc1ccc2c(c1)C(=O)N(CCC(=O)O)CC(=O)N2Cc1cccc([N+](=O)[O-])c1
IC50 [µM]: 0.013
